Data provenance is BindingDB's records for patent US20250320228.

Listed here: items and their measured IC50.
- system name: Mitogen-activated protein kinase kinase kinase kinase 1 (Homo sapiens)
- Sequence (Q92918 whole entry): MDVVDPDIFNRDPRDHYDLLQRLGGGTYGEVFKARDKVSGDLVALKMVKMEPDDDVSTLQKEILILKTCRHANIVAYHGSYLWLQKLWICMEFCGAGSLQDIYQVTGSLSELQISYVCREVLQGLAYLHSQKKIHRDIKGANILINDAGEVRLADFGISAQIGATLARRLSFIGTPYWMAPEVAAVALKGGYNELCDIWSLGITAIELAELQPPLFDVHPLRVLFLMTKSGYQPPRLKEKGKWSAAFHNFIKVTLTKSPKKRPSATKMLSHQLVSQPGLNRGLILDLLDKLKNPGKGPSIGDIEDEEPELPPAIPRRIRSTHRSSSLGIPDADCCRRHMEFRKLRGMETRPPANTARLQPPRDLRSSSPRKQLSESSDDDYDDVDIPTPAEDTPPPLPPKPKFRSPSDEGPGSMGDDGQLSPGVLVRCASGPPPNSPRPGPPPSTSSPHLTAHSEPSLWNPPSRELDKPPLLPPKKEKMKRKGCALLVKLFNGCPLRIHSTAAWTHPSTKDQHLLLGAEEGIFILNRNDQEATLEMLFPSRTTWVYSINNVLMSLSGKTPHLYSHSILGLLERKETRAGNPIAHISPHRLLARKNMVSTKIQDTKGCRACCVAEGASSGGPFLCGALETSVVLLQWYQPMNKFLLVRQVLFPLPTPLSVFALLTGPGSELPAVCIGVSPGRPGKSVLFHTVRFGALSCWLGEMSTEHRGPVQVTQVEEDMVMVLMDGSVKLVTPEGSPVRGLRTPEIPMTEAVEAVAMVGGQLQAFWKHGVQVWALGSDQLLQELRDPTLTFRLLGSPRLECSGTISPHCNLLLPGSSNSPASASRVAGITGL
- method description: HPK1 Kinase Assay
- Experimental: A recombinant fusion protein consisting of full-length human HPK1 (MAP4K1) with an N-terminal Glutatione S-transferase (GST) tag was produced in insect cells Sf21 using the baculovirus expression system. GST-HPK1 protein was purified from cell lysates by glutathione Sepharose affinity chromatography. […] The plate was transferred to a Perkin Elmer EnVision (2104 Multilabel Reader) for luminescence detection and percent inhibition activity and IC50 value were determined using Genedata Screener.

NC(=O)c1cc(-c2ccc(OC(F)(F)F)cc2)nc2c(N[C@@H]3CNC[C@H](F)C3)ncnc12	< 100 nM
NC(=O)c1cc(-c2ccc(CN3CCOCC3)cc2)nc2c(N3CC[C@@H](F)[C@H](N)C3)ncnc12	> 1000 nM

# ---- query compound ----
Hey, Mitogen-activated protein kinase kinase kinase kinase 1 (Homo sapiens) data for NC(=O)c1cc(-c2ccc(CN3CCOCC3)cc2)nc2c(NC34CNCC3C4)ncnc12 (stereo not drawn) : IC50 came out at < 100 nM
